molecules and their reported Complete Media
Tested on: NCI-H292 lung cancer cells
Assay: FDA drug screening, complete media vs cholesterol-free media with simvastatin (TABLE 2)
Type: cell-based, human
Conditions: NCI-H292 cells, complete media; FDA drug library screen (TABLE 2)
Structures can show the parent of a compound that is named as a salt. Square brackets hold non-standard residues; d marks the D form. Peptide text beside a SMILES is read from it. * marks the point of attachment. dPhe(4-NHCONH2) = NC(=O)Nc1ccc(C[C@@H](N)C(=O)O)cc1; Dihydroorotyl(S) = O=C1C[C@@H](C(=O)*)NC(=O)N1; dPhe(4-Cl) = N[C@H](Cc1ccc(Cl)cc1)C(=O)O; Phe(4-NH2) = Nc1ccc(C[C@H](N)C(=O)O)cc1; d2Nal = N[C@H](Cc1ccc2ccccc2c1)C(=O)O; Lys(iPr) = CC(C)NCCCC[C@H](N)C(=O)O; d3Pal = N[C@H](Cc1cccnc1)C(=O)O
Write no unit; give the number alone.

// known answers, use as guide
Molecule: Cc1c(C(=O)Nc2ccc(S(C)(=O)=O)cc2)cn(CCO)c1-c1ccccc1C(F)(F)F
Complete Media: 0.9118

Molecule: CC(=O)OCC(=O)[C@@]12N=C(C)O[C@@H]1C[C@H]1[C@@H]3CCC4=CC(=O)C=C[C@]4(C)[C@H]3[C@@H](O)C[C@@]12C
Complete Media: 0.5899

Molecule: CN1[C@H]2C[C@H](OC(=O)[C@H](CO)c3ccccc3)C[C@@H]1[C@@H](O)C2 (racemic)
Complete Media: 0.9207

Molecule: O=C(Nc1ccc(O)cc1)c1ccccc1O
Complete Media: 0.8951

Molecule: O=C1OCCN1/N=C/c1ccc([N+](=O)[O-])o1
Complete Media: 0.9029

Molecule: C1CCC(C(CC2CCCCN2)C2CCCCC2)CC1 (centres unmarked) [Perhexiline maleate]
Complete Media: 0.811

Value of Complete Media reported for the molecule CC(=O)N[C@H](Cc1ccc2ccccc2c1)C(=O)N[C@H](Cc1ccc(Cl)cc1)C(=O)N[C@H](Cc1cccnc1)C(=O)N[C@@H](CO)C(=O)N[C@@H](Cc1ccc(NC(=O)[C@@H]2CC(=O)NC(=O)N2)cc1)C(=O)N[C@H](Cc1ccc(NC(N)=O)cc1)C(=O)N[C@@H](CC(C)C)C(=O)N[C@@H](CCCCNC(C)C)C(=O)N1CCC[C@H]1C(=O)N[C@H](C)C(N)=O [Degarelix] (Ac-[d2Nal][dPhe(4-Cl)][d3Pal]S[Phe(4-NH2)](Dihydroorotyl(S))[dPhe(4-NHCONH2)]L[Lys(iPr)]P[dA]-NH2) is 1.609

Value source: patent US20250144067A1
